Kindly supply the reported apparent KD of MS2 coat protein values for the records listed here.
# System: MS2 coat protein
# TEST_METHOD_NOTES: apparent KD of MS2 coat protein, switch ON state; designed switch direction (-1 OFF switch, 1 ON switch): 1; higher = weaker reporter binding
# TEST_SETTINGS: FMN input: 0 or 200 uM; Eterna round: R93 (includes R88 designs)
Give bare numbers, in nM.

SEQUENCE_CODE | apparent KD of MS2 coat protein (nM)
GACGGACAUGAGGAUCACCCAUGUCGGAAAAGGCAAGGAUAUGGGCGGUACCAAUUUCGGUCAGAAGGUGCAAAAG [Beenedriar] | 117

Hi there! I need apparent KD of MS2 coat protein for each item below, if you can.
1. AACAAUCUAUCUGAGGAUAUGUGUCAAAAGACAUGAGGAUCACCCAUGUAAAAACAUGGGAAAACACAGAAGGCAGAUAGAUUGA [SS2: 1151]
2. AAAAGACAUGAGGAUCACCCAUGUAAAAACAUGGGAGGAUAUGCAUGGAAAACAUGCUGUGCAGAAGGCUCAUGUC [SS1 - 18]
3. AAACAACAUGAGGAUCACCCAUGUCAAACAAAUCGAGGAUAUGGGCAGGAUUCUUCCUAACUAGAAGGCGAAAACA [Esmatidi]

[369, 40, 164]

Hi there! I need apparent KD of MS2 coat protein for each item below, if you can.
1. GUUAGGAAGAGAGAGGAUAUCCAAAGGAAAACAUGAGGAUCACCCAUGUAAAAGGUAGGAAAUUGGGAGAAGGCUCAAGAGAGAG [salish99-ss2-079]
2. ACUACACAUGAGGAUCACCCAUGUCAGGUCGGACUAGGAUAUUAUAAACCAGAGUAAAAAUAAGAAGGAGUAGAAA [JR_SS001_Sub309]

31.9
37.9

====

# System: MS2 coat protein
# TEST_METHOD_NOTES: apparent KD of MS2 coat protein; designed switch direction (-1 OFF switch, 1 ON switch): -1; higher = weaker reporter binding
# TEST_SETTINGS: Eterna round: R95; input ligand: microRNA oligo, concentration not stated
Kindly supply the reported apparent KD of MS2 coat protein values for the records listed here.
Give bare numbers, in µM.

Examples with answers:
SEQUENCE_CODE | QUANTITATIVE_READOUT
AGUAGUUGUUUCCGUUCUUACAUGAGGAUCACCCAUGUUUCUUGUCGUGCUCGCGAUGCUCGUCAGACUACCAGAUG [salish99_TOv1_r3_059] (puzzle: Sensor v3, turn-off variant 1) | 0.0657
GUGCUAUGAGGAUAUACGUUGGUGGGCAUCUGUGUGCUCCUACAUGAGGAUCACCCAUGUAGAAGGCAUGUCAC [LRO-Excl2-20] (puzzle: Exclusion 2) | 0.0119
AUAUUAAUAUAGGAUAUCGAAAUUAUUAAUUAUCGAGAAGGAUAAACAUGAGGAUCACCCAUGUGGUAUCAUGG [Mat - Exclusion 6 - JL Mod - D41] (puzzle: Exclusion 6) | 0.257
CUAGAUCUUCGGAUCUAGUACAUGAGGAUCACCCAUGUGACGAGUUACAUGUUUUACAAGCUUUUUGCUCGUCUUAU [Sensor v3 - Turn-off variant 1 - 13] (puzzle: Sensor v3, turn-off variant 1) | 0.0907
AACUCGUUAGGAUAUACCGCCAACGAUACCUCGUGAAACAUACAUGAGGAUCACCCAUGUAGAAGGAGCGAGCA [Vearbe] (puzzle: Exclusion 2) | 0.0157

Hi there! I need apparent KD of MS2 coat protein for each item below, if you can.
1. AAUAACAGAGGAUAUACUGUUUUAUGUAUUUAUUAUUUUAAACAUGAGGAUCACCCAUGUAGAAGGCUGAUUGA [JMF 71] (puzzle: Exclusion 2)
2. CUCCUCAUGGCGCCUAAACACAUGAGGAUCACCCAUGUACAGGCUUUCUGCCGUCUUAUAAUAAAACCGAGGAUGCG [Soedlexe] (puzzle: Sensor v3, turn-off variant 1)
3. GGUACUAACACGAAAGUGUUAGUACUAUAGGUUUGUGUUACAUGAGGAUCACCCAUGUCCUCAUAAGCUCGUCUUGU [JL-sv3-2.21 mat747 mod] (puzzle: Sensor v3, turn-off variant 2)
4. GUGGAACAUGAGGAUCACCCAUGUGAGGAUAUGUGUGAAUAGAGGAGAAGAAGAGAGAACAGAAGGCACGGAGG [JR_Exclu1_Sub066] (puzzle: Exclusion 1)
5. GAAUAGGCAGGAUAUACAUGAGGAUCACCCAUGUGCCGGCGAAAGGUACGUUCGAAAGGUAGAAGGGCCUAAAC [ChP 13.04.2015 #7] (puzzle: Exclusion 3)
6. AUGAGGUUAGGAUAUACAUGAGGAUCACCCAUGUUGAAAGGUUAGGUAGGCGGAGCUGGUAGAAGGAACGGAGC [JR_Exclu3_Sub056] (puzzle: Exclusion 3)

0.0268
0.212
0.17
0.0734
0.0438
0.0278
